Biological target: 5-HT2B (Homo sapiens, UniProt P41595)
Sequence (P41595 whole entry): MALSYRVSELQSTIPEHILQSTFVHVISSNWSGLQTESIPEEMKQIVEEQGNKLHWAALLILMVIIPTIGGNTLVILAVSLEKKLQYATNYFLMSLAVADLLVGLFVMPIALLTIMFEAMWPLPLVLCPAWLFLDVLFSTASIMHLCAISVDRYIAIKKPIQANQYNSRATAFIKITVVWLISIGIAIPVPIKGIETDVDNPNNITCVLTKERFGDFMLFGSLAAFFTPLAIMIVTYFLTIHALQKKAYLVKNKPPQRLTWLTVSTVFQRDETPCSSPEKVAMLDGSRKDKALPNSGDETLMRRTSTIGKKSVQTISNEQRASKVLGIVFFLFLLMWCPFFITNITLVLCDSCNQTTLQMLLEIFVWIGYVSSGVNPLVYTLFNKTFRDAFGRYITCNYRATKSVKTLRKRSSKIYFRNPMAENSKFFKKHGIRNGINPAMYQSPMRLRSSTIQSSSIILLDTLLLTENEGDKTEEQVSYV
Test: BRET Gq dissociation, 5-HT2B
Assay type: cell-based
Design: expressed in transfected cells; host or cells: HEK293T, transient
Assay Metric: EC50 (nM)
Quick reminder: number only, in nM, skip the unit.

Some molecules with recorded EC50:
1. COc1cc([N+](=O)[O-])c(OC)cc1CCNCc1ccccc1F [25N-NBF (7)] | 75.9
2. COc1cc(CC(C)N)c(OC)cc1I.Cl (racemic) [(±)-DOI, hydrochloride, reference compound] | 12.6

Return reported EC50; argument: COc1cc([N+](=O)[O-])c(OC)cc1CCNCc1ccccc1C [25N-NBMe (6)] 9.55

I'd like to know its EC50. The molecule in question is COc1cc([N+](=O)[O-])c(OC)cc1CCN [2C-N (1), reference compound] 74.1

----------
Molecular target: 5-HT2A (Homo sapiens, UniProt P28223)
Sequence (P28223 whole entry): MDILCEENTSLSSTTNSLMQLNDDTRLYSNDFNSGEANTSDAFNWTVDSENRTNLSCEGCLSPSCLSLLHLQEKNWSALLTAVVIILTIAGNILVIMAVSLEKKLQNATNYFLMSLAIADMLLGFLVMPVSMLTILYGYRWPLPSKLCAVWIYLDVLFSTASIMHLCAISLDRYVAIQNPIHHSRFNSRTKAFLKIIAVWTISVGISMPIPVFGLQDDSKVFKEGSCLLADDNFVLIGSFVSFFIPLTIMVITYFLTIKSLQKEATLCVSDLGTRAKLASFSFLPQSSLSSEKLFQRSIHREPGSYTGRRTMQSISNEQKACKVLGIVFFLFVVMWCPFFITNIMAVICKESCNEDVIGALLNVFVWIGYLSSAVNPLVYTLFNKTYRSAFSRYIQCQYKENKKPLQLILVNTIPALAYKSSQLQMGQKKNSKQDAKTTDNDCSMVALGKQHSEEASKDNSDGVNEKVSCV
Test: cell-based
Design: expressed in transfected cells; host or cells: HEK293T, transient
Conditions: BRET, mean ± SEM; read-out: 5-HT2A β-arrestin recruitment pEC50 (converted)
Assay Metric: EC50 (nM)
# unit: nM | format: bare number

The cases that follow already have their EC50 on record.
1) COc1cc(OC)c(OC)cc1CCNCc1cccc2c1CCC2 | 3.31
2) COc1cc(Br)ccc1CCNCc1cccc(C)c1O | 2.51
3) COc1cc(OC)c(OC)cc1CCNCc1cccc2cccnc12 | 8.51

# get_value(readout= EC50, system= 5-HT2A (Homo sapiens, UniProt P28223)) for `COc1cc(OC)c(OC)cc1CCNCc1cccc2cnccc12` 17.4

----------
Biological target: UniProt P28335
Sequence (P28335 33-458): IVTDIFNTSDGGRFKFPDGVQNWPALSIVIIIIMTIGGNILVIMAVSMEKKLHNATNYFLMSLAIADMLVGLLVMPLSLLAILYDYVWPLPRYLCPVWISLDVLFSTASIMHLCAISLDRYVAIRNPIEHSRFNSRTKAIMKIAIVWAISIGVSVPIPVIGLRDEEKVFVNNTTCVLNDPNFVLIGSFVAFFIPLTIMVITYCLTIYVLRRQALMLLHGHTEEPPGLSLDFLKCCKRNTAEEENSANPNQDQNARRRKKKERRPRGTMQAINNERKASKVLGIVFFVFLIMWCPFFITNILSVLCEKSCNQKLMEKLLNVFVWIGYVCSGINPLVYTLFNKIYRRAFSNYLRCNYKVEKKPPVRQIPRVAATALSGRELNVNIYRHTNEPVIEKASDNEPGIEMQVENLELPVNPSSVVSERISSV
Assay: Ca2+ flux assay, 5-HT2C
Assay type: cell-based
Set-up: expressed in transfected cells
Conditions: 5-HT2C EC50, nM
Recorded EC50, one value per entry.
Lab book: enter the figure in nM, no units written.

Here is how some compounds turned out for EC50.
1) COc1cc([N+](=O)[O-])c(OC)cc1CCNCc1cccc(F)c1OC [25N-NB-2-MeO-3-F (19)] | 74.5
2) COc1cc([N+](=O)[O-])c(OC)cc1CCNCc1ccccc1OC [25N-NBOMe (4)] | 0.84
3) COc1cc([N+](=O)[O-])c(OC)cc1CCNCc1ccccc1Br [25N-NBBr (9)] | 144
4) COc1cc([N+](=O)[O-])c(OC)cc1CCNCc1cccc(O)c1 [25N-NB-3-OH (21)] | 49.1
5) COc1cc([N+](=O)[O-])c(OC)cc1CCNCc1cccc(F)c1 [25N-NB-3-F (24)] | 149
6) COc1cc([N+](=O)[O-])c(OC)cc1CCN [2C-N (1), reference compound] | 60.1

Any idea what EC50 came out for COc1cc([N+](=O)[O-])c(OC)cc1CCNCc1ccc(F)cc1 [25N-NB-4-F (25)] on UniProt P28335? 413

# get_value(readout= EC50, system= UniProt P28335) for COc1cc([N+](=O)[O-])c(OC)cc1CCNCc1ccc(C)cc1 [25N-NB-4-Me (23)] 844

What EC50 appears in the records for this compound with UniProt P28335? COc1cc([N+](=O)[O-])c(OC)cc1CCNCc1ccccc1 [25N-NB (2)] 26.2
